test system: SK-OV-3 multi-cell spheroids, viability; assay: Anticancer human tumor SK-OV-3 cell line growth inhibition [IpAb]; details: second compound 1 µM; first compound 0.000316 µM; stronger effect = lower value;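 also: viability read after seven days of drug exposure; percent of DMSO vehicle control luminescence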
quantity-kind: viability, T/C (%)
Answer format: numeric, % implied, no suffix.

Q: Could you tell me which viability, T/C is on file for Cn1ncnc1[C@H]1c2n[nH]c(=O)c3cc(F)cc(c23)N[C@@H]1c1ccc(F)cc1 + CCN1CCN(Cc2ccc(Nc3ncc(F)c(-c4cc(F)c5nc(C)n(C(C)C)c5c4)n3)nc2)CC1 ?
A: 49.5

Q: Look at this molecule and give its reported viability, T/C. CC(C)n1nc(-c2ccc3oc(N)nc3c2)c2c(N)ncnc21 + CC(C)NCC(C(=O)N1CCN(c2ncnc3c2C(C)CC3O)CC1)c1ccc(Cl)cc1
A: 18.7

Q: Requested read-out: viability, T/C. Entry: Cn1ncnc1[C@H]1c2n[nH]c(=O)c3cc(F)cc(c23)N[C@@H]1c1ccc(F)cc1 + CC(C)NCC(C(=O)N1CCN(c2ncnc3c2C(C)CC3O)CC1)c1ccc(Cl)cc1
A: 22.9

Q: Please look up its viability, T/C: CC(C)n1nc(-c2ccc3oc(N)nc3c2)c2c(N)ncnc21 + CCN1CCN(Cc2ccc(Nc3ncc(F)c(-c4cc(F)c5nc(C)n(C(C)C)c5c4)n3)nc2)CC1
A: 40.7

====

Kindly supply the reported viability, T/C values for the records listed here.
test system: SK-OV-3 multi-cell spheroids, viability; test: Anticancer human tumor SK-OV-3 cell line growth inhibition [IpAb]; conditions: second compound 10 µM; first compound 10 µM; stronger effect = lower value;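 also: viability read after seven days of drug exposure; percent of DMSO vehicle control luminescence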

Q: Data request, read-out viability, T/C, for Cn1ncc(Cl)c1-c1cc(C(=O)NC(CN)Cc2cccc(F)c2)sc1Cl (configuration not stated) + CC(C)NCC(C(=O)N1CCN(c2ncnc3c2C(C)CC3O)CC1)c1ccc(Cl)cc1
A: 0.28%

Q: State the recorded viability, T/C for this entry: CC1(C)CCC(CN2CCN(c3ccc(C(=O)NS(=O)(=O)c4ccc(NCC5CCOCC5)c([N+](=O)[O-])c4)c(Oc4cnc5[nH]ccc5c4)c3)CC2)=C(c2ccc(Cl)cc2)C1 + CC(C)NCC(C(=O)N1CCN(c2ncnc3c2C(C)CC3O)CC1)c1ccc(Cl)cc1
A: 4.58%

Q: Name the reported viability, T/C value associated with the compound C=CC(=O)N1CCN(c2nc(=O)n(-c3c(C)ccnc3C(C)C)c3nc(-c4c(O)cccc4F)c(F)cc23)C(C)C1 (configuration not stated) + CC(C)NCC(C(=O)N1CCN(c2ncnc3c2C(C)CC3O)CC1)c1ccc(Cl)cc1
A: 6.35%

Q: Bench note: what viability, T/C did Cc1nc(NC(=O)N2CCCC2C(N)=O)sc1-c1ccnc(C(C)(C)C(F)(F)F)c1 (configuration not stated) + CC(C)NCC(C(=O)N1CCN(c2ncnc3c2C(C)CC3O)CC1)c1ccc(Cl)cc1 show?
A: 2.25%

Q: Which value of viability, T/C has been reported for C=CCn1c(=O)c2cnc(Nc3ccc(N4CCN(C)CC4)cc3)nc2n1-c1cccc(C(C)(C)O)n1 + CC(C)NCC(C(=O)N1CCN(c2ncnc3c2C(C)CC3O)CC1)c1ccc(Cl)cc1 in the records?
A: 3.52%

Q: # lookup: viability, T/C of Cn1nccc1Nc1nccc(-c2ccn(C(CO)c3ccc(Cl)c(F)c3)c(=O)c2)n1 (configuration not stated) + CC(C)NCC(C(=O)N1CCN(c2ncnc3c2C(C)CC3O)CC1)c1ccc(Cl)cc1
A: 2.15%

Q: Sample CCCS(=O)(=O)Nc1ccc(F)c(C(=O)c2c[nH]c3ncc(-c4ccc(Cl)cc4)cc23)c1F + CC(C)NCC(C(=O)N1CCN(c2ncnc3c2C(C)CC3O)CC1)c1ccc(Cl)cc1 — what was its viability, T/C?
A: 2.52%
